Give measured selectivity ratio for each item. Keep answers brief.
assay: Selectivity index, ratio of cytotoxicity for human SKOV3 cells to IC50 for Cryptococcus neoformans ATCC 90113; format: toxicity, cell-based, SK-OV-3; conditions: read-out: Selectivity Index

Problem: Find the recorded selectivity ratio belonging to Cc1ccc(-c2nc(C[C@H](NC(=O)[C@H](CCCNC(=N)N)NC(=O)OC(C)(C)C)C(=O)N[C@@H](CCCNC(=N)N)C(=O)NCc3ccccc3)c[nH]2)cc1 and report it.
Solution: > 4.6

Problem: Find the recorded selectivity ratio belonging to COc1ccc(-c2nc(C[C@H](NC(=O)[C@@H](N)CCCNC(=N)N)C(=O)N[C@@H](CCCNC(=N)N)C(=O)NCc3ccccc3)c[nH]2)cc1 and report it.
Solution: > 23.3

Problem: Find the recorded selectivity ratio belonging to COC(=O)[C@H](CCCNC(=N)N)NC(=O)[C@H](Cc1c[nH]c(-c2ccc(C)cc2)n1)NC(=O)[C@H](CCCNC(=N)N)NC(=O)OC(C)(C)C and report it.
Solution: > 1

Problem: Find the recorded selectivity ratio belonging to CC(C)(C)OC(=O)N[C@@H](CCCNC(=N)N)C(=O)N[C@@H](Cc1c[nH]c(-c2ccccc2)n1)C(=O)N[C@@H](CCCNC(=N)N)C(=O)NCc1ccccc1 and report it.
Solution: > 14.9

Problem: Find the recorded selectivity ratio belonging to CC(C)(C)OC(=O)N[C@@H](CCCNC(=N)N)C(=O)N[C@@H](Cc1c[nH]c(-c2ccc(C(C)(C)C)cc2)n1)C(=O)N[C@@H](CCCNC(=N)N)C(=O)NCc1ccccc1 and report it.
Solution: > 55.6

Problem: Find the recorded selectivity ratio belonging to CC(C)(C)OC(=O)N[C@@H](CCCNC(=N)N)C(=O)N[C@@H](Cc1c[nH]c(-c2ccc(-c3ccccc3)cc2)n1)C(=O)N[C@@H](CCCNC(=N)N)C(=O)NCc1ccccc1 and report it.
Solution: > 50

----------
test: Selectivity index, ratio of cytotoxicity for human KB cells to IC50 for Cryptococcus neoformans ATCC 90113; format: toxicity, cell-based; details: read-out: Selectivity Index
Give measured selectivity ratio for each item. Keep answers brief.

Problem: Find the recorded selectivity ratio belonging to COc1ccc(-c2nc(C[C@H](NC(=O)[C@H](CCCNC(=N)N)NC(=O)OC(C)(C)C)C(=O)N[C@@H](CCCNC(=N)N)C(=O)NCc3ccccc3)c[nH]2)cc1 and report it.
Solution: > 14.7

Problem: Find the recorded selectivity ratio belonging to COc1ccc(-c2nc(C[C@H](NC(=O)[C@@H](N)CCCNC(=N)N)C(=O)N[C@@H](CCCNC(=N)N)C(=O)NCc3ccccc3)c[nH]2)cc1 and report it.
Solution: > 23.3

Problem: Find the recorded selectivity ratio belonging to COC(=O)[C@H](CCCNC(=N)N)NC(=O)[C@H](Cc1c[nH]c(-c2ccc(-c3ccccc3)cc2)n1)NC(=O)[C@H](CCCNC(=N)N)NC(=O)OC(C)(C)C and report it.
Solution: > 12.5

Problem: Find the recorded selectivity ratio belonging to CC(C)(C)c1ccc(-c2nc(C[C@H](NC(=O)[C@@H](N)CCCNC(=N)N)C(=O)N[C@@H](CCCNC(=N)N)C(=O)NCc3ccccc3)c[nH]2)cc1 and report it.
Solution: > 143

Problem: Find the recorded selectivity ratio belonging to CC(C)(C)OC(=O)N[C@@H](CCCNC(=N)N)C(=O)N[C@@H](Cc1c[nH]c(-c2ccccc2)n1)C(=O)N[C@@H](CCCNC(=N)N)C(=O)NCc1ccccc1 and report it.
Solution: > 14.9

Problem: Find the recorded selectivity ratio belonging to COC(=O)[C@H](CCCNC(=N)N)NC(=O)[C@H](Cc1c[nH]c(-c2ccc(-c3ccccc3)cc2)n1)NC(=O)[C@@H](N)CCCNC(=N)N and report it.
Solution: > 16.9

----------
test system: Vero; assay: Cytotoxicity against African green monkey Vero cells assessed as cell viability after 48 hrs by neutral red uptake assay; format: cell-based; settings: chlorocebus sabaeus
Give measured Activity for each item. Keep answers brief.

Problem: Find the recorded Activity belonging to COC(=O)[C@H](CCCNC(=N)N)NC(=O)[C@H](Cc1c[nH]c(-c2ccc(C)cc2)n1)NC(=O)[C@H](CCCNC(=N)N)NC(=O)OC(C)(C)C and report it.
Solution: > 10 µg/mL

Problem: Find the recorded Activity belonging to COC(=O)[C@H](CCCNC(=N)N)NC(=O)[C@H](Cc1c[nH]c(-c2ccc(C(C)(C)C)cc2)n1)NC(=O)[C@H](CCCNC(=N)N)NC(=O)OC(C)(C)C and report it.
Solution: > 10 µg/mL

Problem: Find the recorded Activity belonging to COC(=O)[C@H](CCCNC(=N)N)NC(=O)[C@H](Cc1c[nH]c(-c2ccc(C(C)(C)C)cc2)n1)NC(=O)[C@@H](N)CCCNC(=N)N and report it.
Solution: > 10 µg/mL

----------
experiment: Selectivity index, ratio of cytotoxicity for human KB cells to IC50 for Cryptococcus neoformans ATCC 90113; type: toxicity, cell-based; details: read-out: Selectivity Index
Peptide text beside a SMILES is read from it. * marks the point of attachment. Boc = CC(C)(C)OC(=O)*; NHBn = c1ccc(CN*)cc1
measure name: selectivity ratio

Problem: Find the recorded selectivity ratio belonging to COC(=O)[C@H](CCCNC(=N)N)NC(=O)[C@H](Cc1c[nH]c(-c2ccc(C)cc2)n1)NC(=O)[C@H](CCCNC(=N)N)NC(=O)OC(C)(C)C and report it.
Solution: > 1

Problem: Find the recorded selectivity ratio belonging to CC(C)(C)OC(=O)N[C@@H](CCCNC(=N)N)C(=O)N[C@@H](Cc1c[nH]c(-c2ccc(-c3ccccc3)cc2)n1)C(=O)N[C@@H](CCCNC(=N)N)C(=O)NCc1ccccc1 and report it.
Solution: > 50

Problem: Find the recorded selectivity ratio belonging to COC(=O)[C@H](CCCNC(=N)N)NC(=O)[C@H](Cc1c[nH]c(-c2ccc(C(C)(C)C)cc2)n1)NC(=O)[C@@H](N)CCCNC(=N)N and report it.
Solution: > 16.3

Problem: Find the recorded selectivity ratio belonging to COC(=O)[C@H](CCCNC(=N)N)NC(=O)[C@H](Cc1c[nH]c(-c2ccc(C(C)(C)C)cc2)n1)NC(=O)[C@H](CCCNC(=N)N)NC(=O)OC(C)(C)C and report it.
Solution: > 14.1

Problem: Find the recorded selectivity ratio belonging to CC(C)(C)OC(=O)N[C@@H](CCCNC(=N)N)C(=O)N[C@@H](Cc1c[nH]cn1)C(=O)N[C@@H](CCCNC(=N)N)C(=O)NCc1ccccc1 (Boc-Arg-His-Arg-NHBn) and report it.
Solution: > 1.8

Problem: Find the recorded selectivity ratio belonging to N=C(N)NCCC[C@H](NC(=O)[C@H](Cc1c[nH]c(-c2ccc(-c3ccccc3)cc2)n1)NC(=O)[C@@H](N)CCCNC(=N)N)C(=O)NCc1ccccc1 and report it.
Solution: > 100

Problem: Find the recorded selectivity ratio belonging to Cc1ccc(-c2nc(C[C@H](NC(=O)[C@@H](N)CCCNC(=N)N)C(=O)N[C@@H](CCCNC(=N)N)C(=O)NCc3ccccc3)c[nH]2)cc1 and report it.
Solution: > 28.6

Problem: Find the recorded selectivity ratio belonging to COC(=O)[C@H](CCCNC(=N)N)NC(=O)[C@H](Cc1c[nH]c(-c2ccc(OC)cc2)n1)NC(=O)[C@H](CCCNC(=N)N)NC(=O)OC(C)(C)C and report it.
Solution: > 2.5

Problem: Find the recorded selectivity ratio belonging to COC(=O)[C@H](CCCNC(=N)N)NC(=O)[C@H](Cc1c[nH]c(-c2ccc(OC)cc2)n1)NC(=O)[C@@H](N)CCCNC(=N)N and report it.
Solution: > 2.5

Problem: Find the recorded selectivity ratio belonging to CC(C)(C)OC(=O)N[C@@H](CCCNC(=N)N)C(=O)N[C@@H](Cc1c[nH]c(-c2ccc(C(C)(C)C)cc2)n1)C(=O)N[C@@H](CCCNC(=N)N)C(=O)NCc1ccccc1 and report it.
Solution: > 55.6

Problem: Find the recorded selectivity ratio belonging to N=C(N)NCCC[C@H](NC(=O)[C@H](Cc1c[nH]c(-c2ccccc2)n1)NC(=O)[C@@H](N)CCCNC(=N)N)C(=O)NCc1ccccc1 and report it.
Solution: > 13.7

Problem: Find the recorded selectivity ratio belonging to Cc1ccc(-c2nc(C[C@H](NC(=O)[C@H](CCCNC(=N)N)NC(=O)OC(C)(C)C)C(=O)N[C@@H](CCCNC(=N)N)C(=O)NCc3ccccc3)c[nH]2)cc1 and report it.
Solution: > 4.6

----------
assay: Selectivity index, ratio of cytotoxicity for human BT549 cells to IC50 for Cryptococcus neoformans ATCC 90113; format: toxicity, cell-based, BT-549; settings: read-out: Selectivity Index
measure name: selectivity ratio

Problem: Find the recorded selectivity ratio belonging to COc1ccc(-c2nc(C[C@H](NC(=O)[C@@H](N)CCCNC(=N)N)C(=O)N[C@@H](CCCNC(=N)N)C(=O)NCc3ccccc3)c[nH]2)cc1 and report it.
Solution: > 23.3

Problem: Find the recorded selectivity ratio belonging to N=C(N)NCCC[C@H](NC(=O)[C@H](Cc1c[nH]c(-c2ccccc2)n1)NC(=O)[C@@H](N)CCCNC(=N)N)C(=O)NCc1ccccc1 and report it.
Solution: > 13.7

Problem: Find the recorded selectivity ratio belonging to COC(=O)[C@H](CCCNC(=N)N)NC(=O)[C@H](Cc1c[nH]c(-c2ccc(-c3ccccc3)cc2)n1)NC(=O)[C@@H](N)CCCNC(=N)N and report it.
Solution: > 16.9
